Molecular target: HLA-A*29:02
Assay: IEDB peptide-MHC binding, purified MHC/competitive/radioactivity; bounds were set here for any values at or beyond the usual limits of such assays
Conditions: source organism: Vaccinia virus WR
OBSERVATION TYPE: IC50 (nM)
Numbers only, in nM.

IC50 for SQIFNIISYI is 1150

---

Kindly state pIC50 for each of the entries shown.
Target: HLA-A*68:02
Experiment: IEDB peptide-MHC binding, purified MHC/competitive/radioactivity; bounds were set here for any values at or beyond the usual limits of such assays
Details: source organism: SARS-CoV1
Answers are plain numbers, as −log10 of the molar value.

Examples with their reported pIC50 follow.
AIMTRCLAV	5.89
VVHGYFTEV	7.62
MLWCKDGHV	7.13
YIWKSYVHI	6.98
NVLAWLYAA	7.41

Please state pIC50 for every sequence in the list that follows.
1. VVFLHVTYV
2. FLITGVFDI
3. LMSFTILCL

9.00
7.21
6.15

Please state, for each entry, its recorded pIC50.
1. ALVCYIVMPV
2. YLVQQESSFV
3. TLNEDLLEI
4. IVDTVSALV

[7.06, 5.47, 5.84, 6.52]

Would you be so kind as to report pIC50 for each listed record?
1. FVVFLLVTL
2. ALYKGFQFI
3. QLMCQPILL
4. HAFLCLFLL

1. 6.92
2. 5.35
3. 6.85
4. 8.00

// input: 3 sequences below; output: pIC50 for each
1. NLLLLFVTI
2. LIANIFTPLV
3. FLAFVVFLLV

1: 6.12; 2: 7.72; 3: 5.36

Please state, for each entry, its recorded pIC50.
1. MLLTFLTSL
2. CVMYASALV

6.03
9.05

---

Target: HLA-A*02:03
Test: IEDB peptide-MHC binding, purified MHC/competitive/radioactivity; bounds were set here for any values at or beyond the usual limits of such assays
Settings: source organism: SARS-CoV1
For each of the sequences below, state its pIC50.
Answers are plain numbers, as −log10 of the molar value.

Study these solved cases before continuing.
AIAACAMLLV	7.49
TLLCVLAALV	7.11
LLVAAGMEA	7.77
TMADLVYAL	7.80
MVMCGGSLYV	8.00
ALVSGTATA	8.09
TLDAANHSI	6.55
IIFWFSLEI	7.06

Go through the list and state pIC50 for each entry.
1. RILGAGCFV
2. LIVAALVFL
3. SLVKPTVYV
4. TLNEDLLEI
5. IVDTVSALV
6. FLLNKEMYL
7. LVIGFLFLA
8. LLLEWLAEVV

[7.28, 6.87, 7.43, 8.66, 6.28, 8.96, 7.70, 9.09]

Quick one: give me pIC50 for each item below, same order please.
1. ALLADKFPV
2. LLDDFVEII
3. LVFLILCFT
4. ITMTTVYHI
5. GLSDRVVFV
6. LMWFIISIV

1: 6.22; 2: 6.28; 3: 5.73; 4: 8.14; 5: 8.96; 6: 8.14

# batch: return pIC50 for each of the 8 sequences below
1. IVNSVLLFL
2. NVLAWLYAA
3. MLWCKDGHV
4. ALSGVFCGV
5. HLDGEVLSL
6. AIILASFSA
7. LLFQLCTFT
8. LLALQQLEV

6.75
7.82
7.96
7.92
6.88
6.75
8.42
9.54

---

Target: HLA-A*02:02
Assay: IEDB peptide-MHC binding, cellular MHC/competitive/fluorescence; bounds were set here for any values at or beyond the usual limits of such assays
Settings: source organism: Vaccinia virus WR
Please go through the items and note down their IC50.
One number for each entry, in µM.

Field: example entries. Status: answers known.
LTDVEKRIL	27.4
HINDQKFDDV	5.86
PTLFGRGVI	30.3
IVPDIKLDA	6.39
AINKCVDIFT	25.3

Here are 8 sequences. What values of IC50 were reported for them?
1. EVIERINLLV
2. GVEVRYIDI
3. RVTKRDESSI
4. DVEKEKFVAT
5. IAGLKIEEI
6. TIESAKTKI
7. GILIYDDNI
8. GAAITLVVI

[19.7, 12, 12.3, 37.5, 7.66, 16.3, 11.7, 6.45]

---

Target: HLA-A*02:02
Experiment: IEDB peptide-MHC binding, purified MHC/competitive/radioactivity; bounds were set here for any values at or beyond the usual limits of such assays
Settings: source organism: Vaccinia virus WR
Answer each item with its documented pIC50.
Numbers only, as −log10 of the molar value.

STTENAAYQV	6.03
QIFNIISYI	6.95
DISSFYWSL	6.41
MTSTRTIIL	5.87
IISYIILFI	8.55
IISTDQDTML	6.35

Give pIC50 for each of the items listed below.
1. NVFISPASI
2. NITTLLNET
3. MAEFEDQLV
4. ILSLETVKM

1: 6.69; 2: 5.89; 3: 6.78; 4: 8.32

Hey, quick one: what's pIC50 for each of these?
1. TMSIYIAVA
2. KIVQLPKRGV
3. MMVILPDKI

1: 7.09; 2: 5.39; 3: 7.16

---

Biological target: HLA-A*02:03
Experiment: IEDB peptide-MHC binding, cellular MHC/competitive/fluorescence; bounds were set here for any values at or beyond the usual limits of such assays
Settings: source organism: Mammarenavirus guanaritoense
pIC50: −log10 of the molar value.
OBSERVATION TYPE: pIC50

KNAGYLVGR	≤ 4.15

Take each entry in turn and give its pIC50.
1. YCLDFLFDV
2. YVIGLLPQS

1. ≤ 4.15
2. ≤ 4.15

---

Biological target: HLA-A*02:01
Assay: IEDB peptide-MHC binding, purified MHC/competitive/radioactivity; bounds were set here for any values at or beyond the usual limits of such assays
Settings: source organism: Vaccinia virus WR
OBSERVATION TYPE: IC50 (µM)
One number for each entry, in µM.

LLNMRDLIV	0.042
KTDGAVTSPL	1.08
LLSLLVIWIL	0.112
DVQRTRCKYV	1.57
ITLYDFDYYI	0.029
DVLPFDIKYI	0.183

// batch mode: one IC50 value per listed entry
1. WLLCKLSCA
2. AMIELCGAFL
3. NIYRLFTRCA
4. LTDSLSSQM
5. QIFNIISYI
6. IIYSKAGNIL
7. EVERLMELPV

1. 0.151
2. 0.00078
3. 0.81
4. 4.27
5. 0.015
6. 0.542
7. 1.98

Please state IC50 for every sequence in the list that follows.
1. ETIGNQLYL
2. TISWMMKLGI

[3.54, 4.57]

---

Molecular target: HLA-A*02:02
Test: IEDB peptide-MHC binding, cellular MHC/competitive/fluorescence; bounds were set here for any values at or beyond the usual limits of such assays
Settings: source organism: Vaccinia virus WR
OBSERVATION TYPE: pIC50
Answers are plain numbers, as −log10 of the molar value.

Consider the reported pIC50 for these sequences:
CAVNTPVSM	5.20
SVDEEGCGPL	4.83

Take each entry in turn and give its pIC50.
1. VIVENDNVI
2. DIRDKYMEL
3. VQYRILPMII

4.81
4.61
5.00

---

Target: HLA-A*02:01
Experiment: IEDB peptide-MHC binding, cellular MHC/competitive/fluorescence; bounds were set here for any values at or beyond the usual limits of such assays
Settings: source organism: Vaccinia virus WR
OBSERVATION TYPE: IC50 (µM)
Numbers only, in µM.

In the examples that follow, each entry is paired with its recorded IC50.
VTDKTAYIGT	6.62
SIRCVKYLL	7.82
SIVVELEPSL	7.93
FANVISKIYT	15.7

Lab note: each sequence below needs its IC50 filled in.
1. NAKCIEYVTL
2. DIYYNGNKML
3. DIKYDNKLL
4. PTLDNILGI
5. EVMPEKRNVV

[38, 19.6, 26.5, 6.67, 44.3]

---

Target: HLA-A*68:02
Test: IEDB peptide-MHC binding, purified MHC/competitive/radioactivity; bounds were set here for any values at or beyond the usual limits of such assays
Conditions: source organism: Vaccinia virus WR
OBSERVATION TYPE: pIC50
One number for each entry, as −log10 of the molar value.

Example entries begin here.
NMLDDFSAGA	5.59
EISSNDNAKI	6.91
NTVGMSIVCI	6.70
LLWFLTGTFV	9.89
NIGCAVNTPV	7.96
AVKFAEESYT	5.64
EVTPEYIKDL	5.91
ATLNTLITLI	5.98
HTYHLENDKI	6.55
FVLALYSPPL	6.58

Would you mind listing pIC50 for each of the following sequences?
1. EAAAATCALV
2. FTILEYLYI
3. DIMTSTRTI
4. IVTFINDYA
5. NLDDVYSYI
6. DTEFINKFL
7. MVEYLENQL

9.68
7.66
7.11
7.08
5.99
6.93
6.23

Provide each entry's pIC50 from the list below.
1. DTMSIYIAVA
2. DVEKRILNTI

[7.77, 5.36]

Look at each sequence and report its pIC50.
1. TLFIDRGSI
2. DITNILGGVL
3. SIVCIVAAV
4. LTNAISSRV

6.74
6.29
9.26
7.80
